# systemTested: KDR (Homo sapiens)
# Sequence (P35968 20-1356, species assumed): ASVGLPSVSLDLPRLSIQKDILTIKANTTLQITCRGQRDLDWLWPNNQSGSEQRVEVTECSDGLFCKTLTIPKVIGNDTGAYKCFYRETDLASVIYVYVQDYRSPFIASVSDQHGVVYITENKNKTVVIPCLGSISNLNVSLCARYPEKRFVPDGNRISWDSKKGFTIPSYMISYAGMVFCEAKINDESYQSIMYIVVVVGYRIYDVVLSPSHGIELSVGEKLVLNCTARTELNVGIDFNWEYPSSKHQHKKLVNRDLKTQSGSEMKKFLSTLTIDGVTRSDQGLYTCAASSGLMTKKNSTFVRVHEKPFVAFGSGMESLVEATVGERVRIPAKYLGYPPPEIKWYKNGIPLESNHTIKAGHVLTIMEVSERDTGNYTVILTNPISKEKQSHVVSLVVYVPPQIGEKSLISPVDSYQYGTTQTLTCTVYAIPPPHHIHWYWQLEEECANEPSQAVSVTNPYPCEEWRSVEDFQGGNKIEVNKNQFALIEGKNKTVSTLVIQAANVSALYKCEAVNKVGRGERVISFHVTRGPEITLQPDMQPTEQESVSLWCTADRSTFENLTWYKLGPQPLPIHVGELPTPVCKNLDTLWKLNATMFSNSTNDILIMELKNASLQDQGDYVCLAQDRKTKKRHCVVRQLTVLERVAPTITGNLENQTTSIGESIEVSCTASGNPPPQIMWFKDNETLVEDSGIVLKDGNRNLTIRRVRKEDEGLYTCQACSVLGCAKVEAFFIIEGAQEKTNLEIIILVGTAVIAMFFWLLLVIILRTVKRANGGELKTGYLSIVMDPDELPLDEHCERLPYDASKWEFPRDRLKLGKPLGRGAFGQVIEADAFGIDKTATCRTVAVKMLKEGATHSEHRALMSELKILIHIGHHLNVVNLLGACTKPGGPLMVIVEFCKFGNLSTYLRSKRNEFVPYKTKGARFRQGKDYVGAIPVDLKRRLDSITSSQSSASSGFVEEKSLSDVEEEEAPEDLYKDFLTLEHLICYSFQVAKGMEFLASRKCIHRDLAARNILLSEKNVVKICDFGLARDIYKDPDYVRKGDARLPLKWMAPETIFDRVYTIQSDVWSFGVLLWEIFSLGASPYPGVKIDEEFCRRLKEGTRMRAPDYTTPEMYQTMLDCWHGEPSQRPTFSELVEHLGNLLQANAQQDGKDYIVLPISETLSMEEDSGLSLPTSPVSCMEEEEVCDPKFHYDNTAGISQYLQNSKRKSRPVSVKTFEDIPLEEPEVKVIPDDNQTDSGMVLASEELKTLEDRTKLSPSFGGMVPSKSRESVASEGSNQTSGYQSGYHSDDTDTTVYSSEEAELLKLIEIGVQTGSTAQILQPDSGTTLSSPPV
# assayText: KDR kinase inhibition (Ki)
# Assay type: biochemical
pKi: −log10 of the molar value.
So basically: pKi at 7 or higher? That is Condition met. Lower than 7? That is Condition not met.

QUERY: Entry COc1cc2nccc(CN3CCc4c(C(=O)Nc5ccc(Cl)c(C(F)(F)F)c5)cccc4C3=O)c2cc1OC [Example 10A] : is its pKi no less than 7?
RESULT: Condition met

QUERY: Check if pKi >= 7 (inclusive). Item: O=C(Nc1ccc(Cl)cc1)c1cccc2c1CCN(Cc1ccncc1)C2 [Example 1]
RESULT: Condition not met

QUERY: Could you tell me if the measured pKi of COc1cc2nccc(Cn3ccc4cc(Cl)ccc4c3=O)c2cc1OC [Example 11] reaches 7 or more?
RESULT: Condition not met

QUERY: Decide: pKi of CC(C)(C)c1ccc(NC(=O)c2cccc3c2CCN(Cc2ccnc4ccccc24)C3=O)cc1 [Example 7A] >= 7?
RESULT: Condition met
